Tested on: TK-10 renal
Test: NCI-60 one-dose screen, 48 h (100 = growth as untreated, 0 = no growth, -100 = all killed)
Settings: 10 µM unless noted
The panel holds about 83,000 compounds, 20% with a hit somewhere; the sample as a whole holds those more often.
quantity: growth (%)

1. CC(C)(C)OC(=O)NC(CSCc1ccccc1)C(=O)ON1C(=O)CCC1=O (stereo not drawn)    119
2. Cc1ccc(-c2cc3nc(C(Cl)Cl)nc(-c4cccnc4)n3n2)cc1    6.78
3. COc1ccc(C(=O)c2cc(OC)c(OC)c(OC)c2OC)cc1O    95.9

----------
The molecules listed here are annotated with their growth.
Tested on: SK-MEL-2 melanoma
Assay: NCI-60 one-dose screen, 48 h (100 = growth as untreated, 0 = no growth, -100 = all killed)
Settings: 10 µM unless noted
About 83,000 compounds went through this panel and 20% of them were active in at least one assay; those are over-represented in the sample as a whole.
quantity: growth (%)

1. CC1CN(c2oc(-c3ccccc3)nc2C#N)CC(C)O1 (stereo unspecified)    102
2. CCC1=CCC[C@@]2(C)CCC[C@@]3(C)CCCC(C)(C)[C@]1([O-])[O+]32    110
3. CCC(=O)OC1=CN2C(=NC(c3ccc(N)cc3)=CC2c2cc(OC)c(OC)c(OC)c2)S1 (stereo unspecified)    64
4. CC12CCC3C4(C)COC(c5ccco5)OC4CCC3(C)C1CC(C1=CCOC1=O)O2 (stereo unspecified)    131
5. CC(C)(C)N1CCC1C(N)=O (stereo unspecified)    159
6. CN(C)CCOC(=O)Nc1ccccc1Cl    118

----------
Tested on: A549/ATCC NSCLC
Assay: NCI-60 one-dose screen, 48 h
Conditions: 10 µM unless noted
This is part of a sample that, as a whole, favours compounds with a hit. Of some 83,000 tested, about 20% had one in any assay. Active and inactive are the calls of the source. The calls were made as follows: active = growth percent below 10; inactive = the rest.
Labels: active, inactive

1. CCCCN(CCCC)C(=N)c1ccnc2ccccc12    inactive
2. COc1ccc(-c2nc(/C=C3/C(=O)Nc4ccc(F)cc43)c3ccccn23)cc1    inactive
3. COc1cc(C2NN=C3c4ccccc4CCC32)cc(OC)c1OC (stereo not drawn)    inactive
4. S=C(S)NCCc1c[nH]c2ccccc12    inactive
5. COc1cc(-c2nn(-c3cccc(NC(=O)c4cccc(C(F)(F)F)c4)c3)cc2-c2ccncc2)ccc1Cl    active
6. COc1ccc(CNCCCN2C(=O)c3ccc4c5c(ccc(c35)C2=O)C(=O)N(CCCNCCCCNCCCN)C4=O)c(OC)c1OC    inactive
7. COc1ccc(Nc2[nH]n3c(=O)cc(-c4ccccc4)nc3c2C(=O)Nc2ccc(C)cc2)c(OC)c1    inactive
8. O=C(CSc1nc2ccccc2[nH]1)Nc1ccc(-c2nc3ccccc3s2)c(Cl)c1    active
9. N=C(N)c1ccc(-c2ccc(-c3ccc4ccccc4c3)s2)cc1    inactive
10. COc1ccc(-c2nc3sccn3c2/C=C/C(=O)c2cc(F)cc(F)c2)cc1    inactive
11. CC(NNC(C)c1ccccc1)c1ccccc1 (stereo not drawn)    inactive
12. CCOC(=O)c1c(/N=C2\SC(=O)/C(=C\C(=O)OC)N2NC)sc2c1CCN(C(=O)OCC)C2    inactive
13. Cc1nc2cncc(C#Cc3cncc(C(=O)Nc4ccc(CN5CCN(C)CC5)c(C(F)(F)F)c4)c3)c2nc1C    inactive

Cited source for all entries: PubChem BioAssay (NCI)
